Listed next: entries and their corresponding IC50.
# assayed_target: KRAS G12S (Homo sapiens (Human), UniProt P01116+P62937, G12S)
# Sequence (P01116 other isoform, or with tags, fused parts or gaps G12S): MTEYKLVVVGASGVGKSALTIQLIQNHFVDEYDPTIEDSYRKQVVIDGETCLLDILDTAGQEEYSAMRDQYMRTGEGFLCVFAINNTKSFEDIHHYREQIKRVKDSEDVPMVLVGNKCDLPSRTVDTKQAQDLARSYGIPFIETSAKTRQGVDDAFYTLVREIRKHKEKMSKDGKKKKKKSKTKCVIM
# Sequence (P62937 whole entry): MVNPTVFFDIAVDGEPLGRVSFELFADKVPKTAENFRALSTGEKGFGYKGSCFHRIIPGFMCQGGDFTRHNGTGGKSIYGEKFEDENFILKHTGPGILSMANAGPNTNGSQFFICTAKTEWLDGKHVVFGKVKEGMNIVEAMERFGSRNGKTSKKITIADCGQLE
# assay_info: Ras-Raf disruption/FRET/MOA assay (BRAF RBD, Cyclophilin A)
# Format: biochemical
# condition: read-out: KRAS G12S FRET IC50

- molecule: "CCn1c(-c2cccnc2[C@H](C)OC)c2c3cc(ccc31)-c1csc(n1)C[C@H](NC(=O)[C@H](C(C)C)N(C)C(=O)N1CC[C@@]3(CCNC3=O)C1)C(=O)N1CCC[C@H](N1)C(=O)OCC(C)(C)C2"
  test_readout: "IC50"
  recorded_measurement: "100 to 1000 nM"
- molecule: "CCn1c(-c2cccnc2[C@H](C)OC)c2c3cc(ccc31)-c1csc(n1)C[C@H](NC(=O)C1(F)CC1)C(=O)N1CCC[C@H](N1)C(=O)OCC(C)(C)C2"
  test_readout: "IC50"
  recorded_measurement: "100 to 1000 nM"
- molecule: "CCn1c(-c2cccnc2[C@H](C)OC)c2c3cc(ccc31)-c1csc(n1)C[C@H](NC(=O)[C@H](C(C)C)N(C)C(=O)N1C[C@@H]3OCCN(C)[C@H]3C1)C(=O)N1CCC[C@H](N1)C(=O)OCC(C)(C)C2"
  test_readout: "IC50"
  recorded_measurement: "100 to 1000 nM"

Lab note: next molecule to report on.
Qu. Item CCn1c(-c2cccnc2[C@H](C)OC)c2c3cc(ccc31)-c1csc(n1)C[C@H](NC(=O)[C@H](C(C)C)N1CCC3(CCN(S(C)(=O)=O)C3)C1=O)C(=O)N1CCC[C@H](N1)C(=O)OCC(C)(C)C2 (stereo partly drawn) has what recorded IC50?
Ans. 1000 to 10000 nM

###

# assayed_target: KRAS WT (Homo sapiens (Human), UniProt P01116+P62937)
# Sequence (P01116 other isoform, or with tags, fused parts or gaps, one chain of several): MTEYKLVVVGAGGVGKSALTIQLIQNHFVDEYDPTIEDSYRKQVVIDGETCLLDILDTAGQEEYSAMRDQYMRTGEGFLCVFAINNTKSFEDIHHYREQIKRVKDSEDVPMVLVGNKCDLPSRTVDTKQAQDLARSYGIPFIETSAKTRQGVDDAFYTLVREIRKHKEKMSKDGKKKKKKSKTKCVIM
# assay_info: Ras-Raf disruption/FRET/MOA assay (BRAF RBD, Cyclophilin A)
# Assay type: biochemical
# condition: read-out: KRAS WT FRET data IC50
test_readout: IC50

Reference set (2 entries):
- compound: "CCn1c(-c2cccnc2[C@H](C)OC)c2c3cc(ccc31)-c1csc(n1)C[C@H](NC(=O)[C@H](C(C)C)N(C)C(=O)N1CC(S(C)(=O)=O)C1)C(=O)N1CCC[C@H](N1)C(=O)OCC(C)(C)C2 [Compound A383]"
  IC50: "100 to 1000 nM"
- compound: "CCn1c(-c2cccnc2[C@H](C)OC)c2c3cc(ccc31)-c1csc(n1)C[C@H](NC(=O)N1CCC1)C(=O)N1CCC[C@H](N1)C(=O)OCC(C)(C)C2 [Compound A368]"
  IC50: "100 to 1000 nM"

Qu. I am curious: what IC50 value has been reported for CCn1c(-c2cnccc2COC)c2c3cc(ccc31)-c1cc(O)cc(c1)C[C@H](NC(=O)[C@H](C(C)C)N(C)C(=O)C1(C)COC1)C(=O)N1CCC[C@H](N1)C(=O)OCC(C)(C)C2 [Compound A49] ?
Ans. 100 to 1000 nM

###

Parameter: pIC50. Scope: all listed entries.
# assayed_target: KRAS G12S binding to BRAF RBD (Homo sapiens (Human), UniProt P01116+P62937, G12S)
# assay_info: Ras-Raf disruption/FRET/MOA assay, KRAS G12S
# Format: biochemical
pIC50: −log10 of the molar value.

- compound: "CCn1c(-c2cccnc2[C@H](C)OC)c2c3cc(ccc31)-c1csc(n1)C[C@H](NC(=O)[C@H](C(C)C)N(C)C(=O)N1CCC[C@H](N(C)C)CC1)C(=O)N1CCC[C@H](N1)C(=O)OCC(C)(C)C2 [Compound A493]"
  pIC50: "7.00 to 8.00"
- compound: "CCn1c(-c2cccnc2[C@H](C)OC)c2c3cc(ccc31)-c1csc(n1)C[C@H](NC(=O)[C@H](C(C)C)N(C)C(=O)N1CCN3C(=O)CN(C)C[C@H]3C1)C(=O)N1CCC[C@H](N1)C(=O)OCC(C)(C)C2 [Compound A537]"
  pIC50: "7.00 to 8.00"
- compound: "CCn1c(-c2cccnc2[C@H](C)OC)c2c3cc(ccc31)-c1cc(O)cc(c1)C[C@H](NC(=O)[C@H](C(C)C)N(C)C(=O)[C@H]1CCC(C(=O)C#CCOC)C1)C(=O)N1CCC[C@H](N1)C(=O)OCC(C)(C)C2 (stereo partly shown) [Compound A266]"
  pIC50: "7.00 to 8.00"

Qu. What value of pIC50 has been reported for the following compound? C=CC(=O)N(C)CC1CCN(C(=O)N(C)[C@H](C(=O)N[C@H]2Cc3nc(cs3)-c3ccc4c(c3)c(c(-c3cccnc3[C@H](C)OC)n4CC)CC(C)(C)COC(=O)[C@@H]3CCCN(N3)C2=O)C(C)C)CC1 (atropisomer, axis not shown) [Compound A629]
Ans. 7.00 to 8.00

###

Catalogue of IC50 values
# assayed_target: NRAS WT (Homo sapiens (Human), UniProt P01111+P62937)
# Sequence (P01111 whole entry, one chain of several): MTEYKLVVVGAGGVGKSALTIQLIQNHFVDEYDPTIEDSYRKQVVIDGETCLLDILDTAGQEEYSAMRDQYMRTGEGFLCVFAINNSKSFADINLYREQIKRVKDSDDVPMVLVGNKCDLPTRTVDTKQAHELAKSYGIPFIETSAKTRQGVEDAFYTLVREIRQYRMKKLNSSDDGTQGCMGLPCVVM
# assay_info: Ras-Raf disruption/FRET/MOA assay (BRAF RBD, Cyclophilin A)
# Assay type: biochemical

Take a look at these entries with their results.
- compound: "CCn1c(-c2cccnc2[C@H](C)OC)c2c3cc(ccc31)-c1csc(n1)C[C@H](NC(=O)[C@H](C(C)C)N(C)C(=O)N1CCC1C(=O)O)C(=O)N1CCC[C@H](N1)C(=O)OCC(C)(C)C2 (stereo partly drawn)"
  test_readout: "IC50"
  recorded_measurement: "1000 to 10000 nM"
- compound: "CCn1c(-c2cccnc2[C@H](C)OC)c2c3cc(ccc31)-c1csc(n1)C[C@H](NC(=O)[C@H](C(C)C)N(C)C(=O)N1CCC13COC3)C(=O)N1CCC[C@H](N1)C(=O)OCC(C)(C)C2"
  test_readout: "IC50"
  recorded_measurement: "10 to 100 nM"
- compound: "CCn1c(-c2cccnc2[C@H](C)OC)c2c3cc(ccc31)-c1csc(n1)C[C@H](NC(=O)[C@H](C(C)C)N(C)C(=O)N1CCN(C(=O)[C@@H]3CCCN3C)CC1)C(=O)N1CCC[C@H](N1)C(=O)OCC(C)(C)C2"
  test_readout: "IC50"
  recorded_measurement: "10 to 100 nM"
- compound: "CCn1c(-c2cccnc2[C@H](C)OC)c2c3cc(ccc31)-c1csc(n1)C[C@H](NC(=O)[C@H](C(C)C)N(C)C(=O)N1CC[C@@H](F)[C@H](N)C1)C(=O)N1CCC[C@H](N1)C(=O)OCC(C)(C)C2"
  test_readout: "IC50"
  recorded_measurement: "100 to 1000 nM"
- compound: "CCn1c(-c2cccnc2[C@H](C)OC)c2c3cc(ccc31)-c1csc(n1)C[C@H](NC(=O)[C@H](C(C)C)N(C)C(=O)N(C)CCc1ccncc1)C(=O)N1CCC[C@H](N1)C(=O)OCC(C)(C)C2"
  test_readout: "IC50"
  recorded_measurement: "100 to 1000 nM"
- compound: "CCn1c(-c2cccnc2[C@H](C)OC)c2c3cc(ccc31)-c1csc(n1)C[C@H](NC(=O)[C@H](C(C)C)N(C)C(=O)N1CC([C@H](C)COC)C1)C(=O)N1CCC[C@H](N1)C(=O)OCC(C)(C)C2"
  test_readout: "IC50"
  recorded_measurement: "10 to 100 nM"
- compound: "CCn1c(-c2cccnc2[C@H](C)OC)c2c3cc(ccc31)-c1csc(n1)C[C@H](NC(=O)[C@H](C(C)C)N1CCC3(CN(S(C)(=O)=O)C3)C1=O)C(=O)N1CCC[C@H](N1)C(=O)OCC(C)(C)C2"
  test_readout: "IC50"
  recorded_measurement: "1000 to 10000 nM"
- compound: "CCn1c(-c2cccnc2[C@H](C)OC)c2c3cc(ccc31)-c1csc(n1)C[C@H](NC(=O)[C@H](C(C)C)N(C)C(=O)N1CC[C@@H]1CN)C(=O)N1CCC[C@H](N1)C(=O)OCC(C)(C)C2"
  test_readout: "IC50"
  recorded_measurement: "10 to 100 nM"

Turning now to a further compound:
Qu. Field request: IC50 | item: CCn1c(-c2cccnc2[C@H](C)OC)c2c3cc(ccc31)-c1csc(n1)C[C@H](NC(=O)C1CC1)C(=O)N1CCC[C@H](N1)C(=O)OCC(C)(C)C2
Ans. 100 to 1000 nM

###

# assayed_target: NRAS G12C (Homo sapiens (Human), UniProt P01111+P62937, G12C)
# Sequence (P01111 whole entry G12C, one chain of several): as the sequence (P01111 whole entry, one chain of several) above, with G12C counted along it
# assay_info: Ras-Raf disruption/FRET/MOA assay (BRAF RBD, Cyclophilin A)
# Format: biochemical
# condition: read-out: NRAS G12C FRET data IC50
# Protocol: Compound is present in plate wells as a 10-point 3-fold dilution series starting at a final concentration of 30 μM. After incubation at 25° C. for 3 hours, a mixture of Anti-His Eu—W1024 and anti-GST allophycocyanin is then added to assay sample wells at final concentrations of 10 nM and 50 nM, respectively, and the reaction incubated for an additional 1.5 hours. […]
# IC50 listing for each entry below

- compound: "CCn1c(-c2cccnc2[C@H](C)OC)c2c3cc(ccc31)-c1cc(O)cc(c1)C[C@H](NC(=O)[C@H](C(C)C)N(C)C(=O)C1(C(F)F)CCCO1)C(=O)N1CCC[C@H](N1)C(=O)OCC(C)(C)C2 (some centres unmarked)"
  assayed_target: "NRAS G12C (Homo sapiens (Human), UniProt P01111+P62937, G12C)"
  recorded_measurement: "100 to 1000 nM"

# ---- query compound ----
Qu. Query: IC50; subject: CCn1c(-c2cccnc2[C@H](C)OC)c2c3cc(ccc31)-c1cc(O)cc(c1)C[C@H](NC(=O)[C@H](C(C)C)N(C)C(=O)C1CC(C)C1)C(=O)N1CCC[C@H](N1)C(=O)OCC(C)(C)C2 (some centres unmarked)
Ans. 10 to 100 nM
